- experiment-description: Clearance in C57/BI mouse at 2 mg/kg, iv measured upto 24 hrs by LC-MS/MS analysis
- Type: ADME, organism-based
- experimental-parameters: in vivo
measure: clearance

INSERT INTO assay_data (compound_structure, result) VALUES
  ('O=C(NO)c1cnc(NC2(c3ccccc3)CCC(F)(F)CC2)nc1', '140 mL/min/kg');

###

- test-target: Histone deacetylase 2 (Homo sapiens, UniProt Q92769)
- Sequence (Q92769 whole entry): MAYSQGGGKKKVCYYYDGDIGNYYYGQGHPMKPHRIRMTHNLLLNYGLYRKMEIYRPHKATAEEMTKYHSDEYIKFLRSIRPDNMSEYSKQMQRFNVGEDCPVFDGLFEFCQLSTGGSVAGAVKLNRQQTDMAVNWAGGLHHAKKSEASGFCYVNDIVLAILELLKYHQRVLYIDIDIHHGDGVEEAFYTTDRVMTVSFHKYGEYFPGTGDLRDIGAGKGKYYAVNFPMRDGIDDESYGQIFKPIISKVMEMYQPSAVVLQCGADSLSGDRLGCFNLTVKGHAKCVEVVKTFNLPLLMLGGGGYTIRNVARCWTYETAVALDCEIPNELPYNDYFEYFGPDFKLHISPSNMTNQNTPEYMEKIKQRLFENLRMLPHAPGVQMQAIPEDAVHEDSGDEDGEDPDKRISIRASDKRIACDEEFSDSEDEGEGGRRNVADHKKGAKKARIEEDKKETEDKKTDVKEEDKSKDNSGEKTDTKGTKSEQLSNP
- experiment-description: Inhibition of human recombinant HDAC2 incubated for 15 mins by fluorimetry analysis
pIC50: −log10 of the molar value.
measure: pIC50

INSERT INTO results (compound, result) VALUES
  ('CS(=O)(=O)NCC(Nc1ncc(-c2nnc(C(F)F)o2)cn1)c1ccc(OC(F)(F)F)cc1 (centres undefined)', '< 4.00'),
  ('O=C(NO)c1cnc(NC2(c3ccccc3)CCC(F)(F)CC2)nc1', 4.15),
  ('FC(F)c1nnc(-c2ccc(Cn3nnc(-c4ccccn4)n3)nc2)o1', '< 4.00'),
  ('COc1ccccc1-c1nnn(Cc2ccc(-c3nnc(C(F)F)o3)cn2)n1', '< 4.00');

###

// reported pIC50 for each item listed
- test-target: Histone deacetylase 11 (Homo sapiens)
- Sequence (Q96DB2 whole entry): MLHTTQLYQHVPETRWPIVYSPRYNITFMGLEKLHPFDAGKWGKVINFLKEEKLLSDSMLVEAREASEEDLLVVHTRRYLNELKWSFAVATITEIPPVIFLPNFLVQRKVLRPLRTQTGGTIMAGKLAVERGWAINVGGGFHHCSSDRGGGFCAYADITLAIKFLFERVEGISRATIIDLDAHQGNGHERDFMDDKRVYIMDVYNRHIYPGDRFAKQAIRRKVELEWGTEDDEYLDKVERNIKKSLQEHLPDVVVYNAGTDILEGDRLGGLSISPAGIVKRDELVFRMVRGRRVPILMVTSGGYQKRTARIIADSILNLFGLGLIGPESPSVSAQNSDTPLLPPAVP
- experiment-description: Inhibition of human recombinant HDAC11 incubated for 30 mins by fluorimetry analysis
pIC50: −log10 of the molar value.
measure: pIC50

INSERT INTO results (compound, test_target, measure, result) VALUES
  ('O=C(NO)c1cnc(NC2(c3ccccc3)CCC(F)(F)CC2)nc1', 'Histone deacetylase 11 (Homo sapiens)', 'pIC50', 4.89),
  ('COc1ccccc1-c1nnn(Cc2ccc(-c3nnc(C(F)F)o3)cn2)n1', 'Histone deacetylase 11 (Homo sapiens)', 'pIC50', '< 4.00'),
  ('CS(=O)(=O)NCC(Nc1ncc(-c2nnc(C(F)F)o2)cn1)c1ccc(OC(F)(F)F)cc1 (centres undefined)', 'Histone deacetylase 11 (Homo sapiens)', 'pIC50', '< 4.00'),
  ('FC(F)c1nnc(-c2ccc(Cn3nnc(-c4ccccn4)n3)nc2)o1', 'Histone deacetylase 11 (Homo sapiens)', 'pIC50', '< 4.00');

###

- experiment-description: Metabolic stability in human liver microsomes assessed as disappearance of parent compound
- Format: ADME, Microsome
- experimental-parameters: read-out: CLH
// reported microsomal CLint for each item listed
measure: microsomal CLint

INSERT INTO measurements (compound_structure, result) VALUES
  ('Fc1cc(-c2nnc(C(F)F)o2)cc(F)c1Cn1nnc(-c2ccccn2)n1', '< 3 µL/min/mg'),
  ('FC(F)c1nnc(-c2cnc(NC3(c4ccccc4)CCC(F)(F)CC3)nc2)o1', '12 µL/min/mg'),
  ('FC(F)c1nnc(-c2ccc(Cn3nnc(-c4cccc(Cl)c4)n3)nc2)o1', '< 3 µL/min/mg'),
  ('COc1ccccc1-c1nnn(Cc2ccc(-c3nnc(C(F)F)o3)cn2)n1', '< 3 µL/min/mg');

###

- experiment-description: Half life in C57/BI mouse at 1 mg/kg, po measured upto 24 hrs by LC-MS/MS analysis
- Assay type: ADME, organism-based
- experimental-parameters: in vivo
measure: half-life (h)

INSERT INTO measurements (compound_structure, measure, endpoint_unit, numeric_readout) VALUES
  ('FC(F)c1nnc(-c2ccc(Cn3nnc(-c4ccccn4)n3)nc2)o1', 'half-life', 'h', 5.3);

###

- experiment-description: Metabolic stability in human liver microsomes assessed as disappearance of parent compound
- Assay type: ADME, Microsome
- experimental-parameters: read-out: CLH
// reported microsomal CLint for each item listed
measure: microsomal CLint

INSERT INTO measurements (compound, result) VALUES
  ('FC(F)c1nnc(-c2ccc(Cn3nnc(-c4ccccc4Cl)n3)nc2)o1', '< 3 µL/min/mg'),
  ('CNC(=O)c1csc(-c2nnn(Cc3ccc(-c4nnc(C(F)F)o4)cc3)n2)c1', '7.5 µL/min/mg'),
  ('O=C(NO)c1cnc(NC2(c3ccccc3)CCC(F)(F)CC2)nc1', '< 3 µL/min/mg'),
  ('FC(F)c1nnc(-c2cnc(Cn3nnc(-c4ccccn4)n3)nc2)o1', '< 3 µL/min/mg'),
  ('FC(F)c1nnc(-c2ccc(Cn3nnnc3-c3ccccn3)cc2)o1', '5.8 µL/min/mg'),
  ('CS(=O)(=O)NCC(Nc1ncc(-c2nnc(C(F)F)o2)cn1)c1ccc(OC(F)(F)F)cc1 (stereo not given)', '< 3 µL/min/mg'),
  ('O=C(NO)c1cc(F)c(Cn2nnc(-c3ccccn3)n2)c(F)c1', '< 3 µL/min/mg'),
  ('FC(F)c1nnc(-c2ccc(Cn3nnc(-c4ccccc4)n3)nc2)o1', '< 3 µL/min/mg'),
  ('COc1cccc(-c2nnn(Cc3ccc(-c4nnc(C(F)F)o4)cn3)n2)c1', '18 µL/min/mg'),
  ('FC(F)c1nnc(-c2ccc(Cn3nnc(-c4ccccn4)n3)cc2)o1', '< 3 µL/min/mg');

###

- test-target: Protein deacetylase HDAC6 (Homo sapiens, UniProt Q9UBN7)
- Sequence (Q9UBN7 whole entry): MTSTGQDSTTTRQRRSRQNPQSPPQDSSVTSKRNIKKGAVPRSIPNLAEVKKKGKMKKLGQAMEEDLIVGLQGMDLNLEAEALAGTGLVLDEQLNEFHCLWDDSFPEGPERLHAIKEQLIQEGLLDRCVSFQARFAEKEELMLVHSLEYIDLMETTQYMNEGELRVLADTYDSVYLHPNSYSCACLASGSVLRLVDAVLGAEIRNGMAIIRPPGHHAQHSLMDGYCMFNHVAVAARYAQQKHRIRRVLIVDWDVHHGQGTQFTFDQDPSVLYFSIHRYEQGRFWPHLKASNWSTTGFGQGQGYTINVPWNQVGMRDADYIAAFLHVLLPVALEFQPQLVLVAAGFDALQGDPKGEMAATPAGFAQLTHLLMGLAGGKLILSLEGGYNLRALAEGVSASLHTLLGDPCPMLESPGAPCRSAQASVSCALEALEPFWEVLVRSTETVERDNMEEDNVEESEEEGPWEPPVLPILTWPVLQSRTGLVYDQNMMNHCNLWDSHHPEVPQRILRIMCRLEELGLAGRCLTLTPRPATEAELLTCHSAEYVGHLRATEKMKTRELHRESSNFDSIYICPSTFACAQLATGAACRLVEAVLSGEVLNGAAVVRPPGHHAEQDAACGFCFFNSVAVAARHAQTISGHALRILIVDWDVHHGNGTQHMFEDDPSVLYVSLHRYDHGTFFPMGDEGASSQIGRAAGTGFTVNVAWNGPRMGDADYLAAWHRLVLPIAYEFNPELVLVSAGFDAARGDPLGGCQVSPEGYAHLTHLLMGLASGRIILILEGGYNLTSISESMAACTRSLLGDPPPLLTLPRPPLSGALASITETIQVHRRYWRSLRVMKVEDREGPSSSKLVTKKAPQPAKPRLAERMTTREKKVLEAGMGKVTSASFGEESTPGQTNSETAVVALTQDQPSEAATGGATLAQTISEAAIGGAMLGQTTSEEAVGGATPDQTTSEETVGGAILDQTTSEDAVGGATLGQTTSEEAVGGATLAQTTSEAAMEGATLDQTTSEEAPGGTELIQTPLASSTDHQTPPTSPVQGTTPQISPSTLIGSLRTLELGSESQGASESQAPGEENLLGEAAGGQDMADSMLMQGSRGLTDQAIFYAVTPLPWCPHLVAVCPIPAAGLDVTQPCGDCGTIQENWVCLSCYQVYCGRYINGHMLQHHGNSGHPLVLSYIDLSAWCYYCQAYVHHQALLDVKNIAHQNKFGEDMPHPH
- experiment-description: Stability of the compound assessed as full-length human HDAC6 mediated-drug degradation measured after 96 hrs by time-resolved mass spectrometry analysis
- Format: ADME
measure: Stability

INSERT INTO measurements (compound, result) VALUES
  ('CS(=O)(=O)NCC(Nc1ncc(-c2nnc(C(F)F)o2)cn1)c1ccc(OC(F)(F)F)cc1 (stereo unspecified)', 'Unstable'),
  ('O=C(NO)c1cc(F)c(Cn2nnc(-c3ccccn3)n2)c(F)c1', 'Stable'),
  ('FC(F)c1nnc(-c2ccc(Cn3nnc(-c4ccccn4)n3)nc2)o1', 'Unstable'),
  ('FC(F)c1nnc(-c2cnc(NC3(c4ccccc4)CCC(F)(F)CC3)nc2)o1', 'Unstable'),
  ('O=C(NO)c1cnc(NC2(c3ccccc3)CCC(F)(F)CC2)nc1', 'Stable'),
  ('FC(F)c1nnc(-c2cnc(Cn3nnc(-c4ccccn4)n3)nc2)o1', 'Unstable');

###

- experiment-description: Aqueous solubility of the compound at pH 7.4
- Type: physicochemical
Mark true (1) for reported solubility of 100 µM or greater; mark false (0) for anything smaller.

INSERT INTO assay_data (molecule, classification) VALUES
  ('FC(F)c1nnc(-c2ccc(Cn3nnc(-c4ccc(Cl)cc4)n3)nc2)o1', 'false (0)'),
  ('FC(F)c1nnc(-c2ccc(Cn3nnc(-c4ccccc4)n3)nc2)o1', 'false (0)'),
  ('FC(F)c1nnc(-c2ccc(Cn3nnc(-c4ccccn4)n3)nc2)o1', 'true (1)'),
  ('CNC(=O)c1csc(-c2nnn(Cc3ccc(-c4nnc(C(F)F)o4)cc3)n2)c1', 'false (0)'),
  ('CS(=O)(=O)NCC(Nc1ncc(-c2nnc(C(F)F)o2)cn1)c1ccc(OC(F)(F)F)cc1 (centres undefined)', 'true (1)'),
  ('FC(F)c1nnc(-c2ccc(Cn3nnc(-c4ccccn4)n3)cn2)o1', 'true (1)'),
  ('COc1ccccc1-c1nnn(Cc2ccc(-c3nnc(C(F)F)o3)cn2)n1', 'false (0)'),
  ('COc1cccc(CNC(=O)c2csc(-c3nnn(Cc4ccc(-c5nnc(C(F)F)o5)cc4)n3)c2)c1', 'false (0)'),
  ('FC(F)c1nnc(-c2cnc(NC3(c4ccccc4)CCC(F)(F)CC3)nc2)o1', 'false (0)'),
  ('FC(F)c1nnc(-c2ccc(Cn3nnnc3-c3ccccn3)cc2)o1', 'false (0)'),
  ('O=C(NO)c1cc(F)c(Cn2nnc(-c3ccccn3)n2)c(F)c1', 'true (1)'),
  ('COc1cccc(-c2nnn(Cc3ccc(-c4nnc(C(F)F)o4)cn3)n2)c1', 'false (0)'),
  ('Fc1cc(-c2nnc(C(F)F)o2)cc(F)c1Cn1nnc(-c2ccccn2)n1', 'false (0)'),
  ('FC(F)c1nnc(-c2ccc(Cn3nnc(-c4ccccc4Cl)n3)nc2)o1', 'false (0)'),
  ('FC(F)c1nnc(-c2ccc(Cn3nnc(-c4cccc(Cl)c4)n3)nc2)o1', 'false (0)'),
  ('FC(F)c1nnc(-c2ccc(Cn3nnc(-c4cccnc4)n3)nc2)o1', 'true (1)'),
  ('FC(F)c1nnc(-c2ccc(Cn3nnc(-c4ccccn4)n3)cc2)o1', 'false (0)'),
  ('FC(F)c1nnc(-c2cnc(Cn3nnc(-c4ccccn4)n3)nc2)o1', 'true (1)'),
  ('O=C(NO)c1cnc(NC2(c3ccccc3)CCC(F)(F)CC2)nc1', 'true (1)');
